Origin of values: PubChem BioAssay AID493169

Assay: CHOP2 Reporter Counterscreen Assay for Inhibitors of Ubiquitin-specific Protease USP2a;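 note: activated enterokinase alone at 50 pM in a cell-free format rather than USP2a or CHOP2; nearly all actives have a fitted effect of over 55% in size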
Measurement Parameters: purified enterokinase, fluorogenic substrate, 485/531 nm; series mostly up to 38.3 µM
Inconclusive results are not listed. Calls of active or inactive are those of the source. Calls come from the whole dose curve; as a rule, active = well fitted inhibition curve with a large enough effect; inconclusive = small, poorly fitted or top-dose-only effect; inactive = flat fitted curve, though single readings scatter.
Labels: active, inactive

{"Compound": "CCOC(=O)CCCNC(=O)COC(=O)c1cccc(C)c1O", "Class Assignment": "inactive"}
{"Compound": "Cc1cc(C(=O)Nc2ccccc2N2CCOCC2)c2ccccc2n1", "Class Assignment": "inactive"}
{"Compound": "C/C(Cn1nnc2ccccc21)=N\\OC(=O)c1ccccc1C", "Class Assignment": "inactive"}
{"Compound": "Cn1c(=O)[nH]c(=O)c2c1nc(NCc1ccccc1)n2CCCc1ccccc1", "Class Assignment": "inactive"}
{"Compound": "CCCCc1ccc(/C=C2/C(=O)ON=C2c2ccccc2)s1", "Class Assignment": "inactive"}
{"Compound": "O=C(NN1C(=O)/C(=C/C=C/c2ccco2)SC1=S)c1ccncc1", "Class Assignment": "active"}
{"Compound": "C[C@H](CO)N1C[C@H](C)[C@@H](CN(C)S(=O)(=O)c2cccs2)Oc2c(NC(=O)Nc3ccc4c(c3)OCO4)cccc2C1=O", "Class Assignment": "inactive"}
{"Compound": "CSCC[C@H](NC(=O)C1CCN(S(=O)(=O)c2ccc(C)cc2)CC1)C(=O)NCc1ccco1", "Class Assignment": "inactive"}
{"Compound": "O=S(=O)(Nc1cccc(-c2cn3c(n2)SCC3)c1)c1ccc(F)cc1F", "Class Assignment": "inactive"}
{"Compound": "CC(C)CC(c1nnnn1CC1CCCO1)N1CCN(c2nc3ccccc3s2)CC1 (configuration not stated)", "Class Assignment": "inactive"}
{"Compound": "CCOc1ccccc1C(=O)NC1CC2CCCC(C1)N2C1CC1 (configuration not stated)", "Class Assignment": "inactive"}
{"Compound": "CC(C)Cn1c(SCC(N)=O)nnc1-c1cccc(S(=O)(=O)N2CCOCC2)c1", "Class Assignment": "inactive"}
{"Compound": "COc1cccc(C(=O)NC(C)c2ccc(-c3ccccc3)cc2)c1OC (configuration not stated)", "Class Assignment": "inactive"}
{"Compound": "CN(c1cccc(NC(=O)Nc2cccc(Cl)c2)c1)S(C)(=O)=O", "Class Assignment": "inactive"}
{"Compound": "CC1(C)CC(=O)C=C(NCc2cccs2)C1", "Class Assignment": "inactive"}
{"Compound": "Cc1ccccc1N=C1NC(=O)CS1", "Class Assignment": "inactive"}
{"Compound": "CCOC(=O)COc1ccccc1/C=N/O", "Class Assignment": "inactive"}
{"Compound": "COC1=CCC2([N+](=O)[O-])CN(CCO)CC1([N+](=O)[O-])C2 (configuration not stated)", "Class Assignment": "inactive"}
{"Compound": "Cc1noc(NS(=O)(=O)c2ccc(N3CC(O)=C(c4ccccc4)C3=N)cc2)c1C", "Class Assignment": "inactive"}
{"Compound": "O=C(CNC(=O)C1CCCCC1)NC1=NCCS1", "Class Assignment": "inactive"}
{"Compound": "NS(=O)(=O)c1ccc(N=Nc2c(O)c(C(=O)O)cc3ccccc23)cc1", "Class Assignment": "active"}
{"Compound": "CC(=O)N1c2c(cc(Br)cc2S(=O)(=O)NCc2cccnc2)CC1C (configuration not stated)", "Class Assignment": "inactive"}
